Molecular target: N-glycosylase/DNA lyase (Homo sapiens) (UniProt O15527);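 also: OGG1 cleavage of a quenched duplex DNA oligonucleotide, coupled to APE1 for strand incision, read as fluorescence at 594 nm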
Sequence (O15527 whole entry): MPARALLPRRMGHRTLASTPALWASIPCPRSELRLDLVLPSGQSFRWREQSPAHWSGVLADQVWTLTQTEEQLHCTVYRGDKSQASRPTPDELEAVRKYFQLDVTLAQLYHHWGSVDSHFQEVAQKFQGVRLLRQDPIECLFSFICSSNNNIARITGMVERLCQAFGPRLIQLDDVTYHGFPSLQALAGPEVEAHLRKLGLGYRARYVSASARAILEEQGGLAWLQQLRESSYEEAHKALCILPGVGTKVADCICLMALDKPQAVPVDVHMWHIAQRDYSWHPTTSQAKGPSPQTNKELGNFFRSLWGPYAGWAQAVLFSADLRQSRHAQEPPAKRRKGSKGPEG
Conditions: Compound Concentration 10.0 uM, Hit No
Description: Inhibition of OGG1 by quantifying inhibition of OGG1-mediated cleavage and dissociation of quenched duplex DNA oligonucleotides, measured as fluorescence at 594 nm. To generate a functional strand incision and increase turn-over this assay is coupled to APE1.
Test Readout: inhibition
The reply should read as a number followed by its unit.

Reference set, count: 3
Cc1nc(NC(=O)N2CCC[C@H]2C(N)=O)sc1-c1ccnc(C(C)(C)C(F)(F)F)c1 | 12.9%
O=C(O)c1ccc(-c2coc3ncc(-c4ccccc4)cc23)cc1Cl | 13.2%
Cc1ccc(S(=O)(=O)Nc2ccc(-n3nc(C(F)(F)F)cc3C(F)(F)F)cc2)cc1 | 21.7%

Moving on to another molecule below.
Problem: # lookup: inhibition of `O=C1N/C(=N/c2ccccc2F)S/C1=C\c1ccc(C(=O)O)cc1`
Solution: -2.53%
